Test: Plasma concentration in Wistar rat at 10 mg/kg, po after 3 days
Type: ADME, organism-based
Design: dose 10 mg/kg, route oral
ASSAY READOUT: concentration at 72 h (ng/mL)
Report the figure in ng/mL without appending any unit label.

// returns reported concentration at 72 h for input CCc1cc(-c2noc(-c3sc(CC)c4c3CCC(C)(C)C4)n2)cc(C)c1OC[C@@H](O)CNC(=O)CO 236

----------
Biological target: Sphingosine 1-phosphate receptor 3 (Homo sapiens)
Sequence (Q99500 whole entry): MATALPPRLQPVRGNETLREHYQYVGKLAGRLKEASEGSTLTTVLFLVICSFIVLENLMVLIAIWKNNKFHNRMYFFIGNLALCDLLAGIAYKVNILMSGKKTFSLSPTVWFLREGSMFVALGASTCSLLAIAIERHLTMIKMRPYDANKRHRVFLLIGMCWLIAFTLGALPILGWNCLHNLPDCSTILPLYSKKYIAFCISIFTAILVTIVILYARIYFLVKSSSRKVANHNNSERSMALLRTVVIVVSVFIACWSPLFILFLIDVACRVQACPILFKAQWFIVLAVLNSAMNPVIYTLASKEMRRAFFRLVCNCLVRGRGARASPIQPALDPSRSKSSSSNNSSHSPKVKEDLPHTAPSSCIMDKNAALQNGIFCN
Assay: Agonist activity at human recombinant S1P3 receptor expressed in CHO cells assessed as membrane-bound 35S-GTPgammaS incubated 30 mins prior to substrate addition measured after 1 hr by topcount scintillation counting analysis
# pEC50 values compiled below
When answering, recall that pEC50 equals minus log10 of the concentration in mol/L, and write that number alone.

Below are worked cases with known answers.
- CCc1cc(-c2noc(-c3sc(CC)c4c3CCC(C)(C)C4)n2)cc(C)c1OCCNCCC(=O)O: 8.24
- CCCc1sc(-c2nc(-c3cc(C)c(OC[C@@H](O)CNC(=O)CO)c(CC)c3)no2)c2c1CC(C)(C)CC2: 7.96

Now, please, on to the next compound.
// returns reported pEC50 for input Cc1cc(CCC(=O)c2sc(C)c3c2CCC(C)(C)C3)cc(C)c1OCCN 5.07
